Hey, just so you know, these numbers are from patent US20230414735A1.

Tested on: HLA Class I molecules
Assay: HLA class I binding stability assay (pMHC-I complex dissociation, 125I-labeled β2m, scintillation counts)
Parameters: species or system human
Conditions: allele A02.01; pMHC-I dissociation at 37° C.
Property Label: Stability (T1/2 (h))
Just the number in h, nothing appended.

Would you please look over these solved cases?
CSCC[C@H](NC(=O)[C@H](CC(C)C)NC(=O)[C@H](CCC(N)=O)NC(=O)[C@@H](N)CCSC)C(=O)N1CCC[C@H]1C(=O)N[C@@H](Cc1ccccc1)C(=O)NCC(=O)N[C@@H](CS)C(=O)N[C@@H](CC(C)C)C(=O)O : 0.4
CSCC[C@H](NC(=O)[C@H](CCC(=O)O)NC(=O)[C@H](CCCNC(=N)N)NC(=O)[C@H](CC(C)C)NC(=O)[C@H](Cc1ccc(O)cc1)NC(=O)[C@H](CC(N)=O)NC(=O)[C@H](CC(C)C)NC(=O)[C@H](CC(C)C)NC(=O)[C@@H](N)CO)C(=O)O : 3
CC[C@H](C)[C@H](NC(=O)[C@H](Cc1ccccc1)NC(=O)[C@H](CCCNC(=N)N)NC(=O)[C@@H]1CCCN1C(=O)[C@H](CC(C)C)NC(=O)[C@@H](N)CO)C(=O)N[C@@H](CC(C)C)C(=O)N[C@@H](CCSC)C(=O)N[C@@H](CCC(=O)O)C(=O)N[C@@H](CC(C)C)C(=O)O : 0.5

Continue with the next molecule.
IN: Entry CC[C@H](C)[C@H](NC(=O)[C@@H](N)CC(C)C)C(=O)N[C@@H](CCSC)C(=O)N[C@@H](CCC(N)=O)C(=O)N[C@@H](CC(C)C)C(=O)N[C@@H](CCSC)C(=O)N1CCC[C@H]1C(=O)N[C@@H](Cc1ccccc1)C(=O)NCC(=O)N[C@@H](CS)C(=O)O has what Stability (T1/2 (h))?
OUT: 0.4
